Each recorded value in this set is attributed to patent US4053632A.

# Test system: pupil width (mydriasis)
# SETUP CONDITIONS: mouse, in vivo, iv, 10 min
Known Peripheral anti-cholinergic action PD200 of a selection of molecules
QUANTITY NAME: Peripheral anti-cholinergic action PD200 (mg/kg)

molecule=NC1CCC2(CC1)c1ccccc1C=Cc1ccccc12 relation_qualifier=< result=10
molecule="CN(C)C1CCC2(CC1)c1ccccc1CCc1ccc(Cl)cc12 (centres unmarked)" relation_qualifier== result=15
molecule="NC1C=CC2(CC1)c1ccccc1C=Cc1ccccc12 (centres unmarked)" relation_qualifier=> result=25
molecule="CN(C)C1C=CC2(CC1)c1ccccc1C=Cc1ccc(Cl)cc12 (centres unmarked)" relation_qualifier== result=15
molecule="CN(C)C1CCC2(CC1)c1ccccc1C=Cc1ccc(Cl)cc12 (centres unmarked)" relation_qualifier== result=9

###

# EXPERIMENT DESCRIPTION: in vivo
# SETUP CONDITIONS: mouse, ip
Known LD50 at 24 h of a selection of compounds
QUANTITY NAME: LD50 at 24 h

compound="CN(C)C1C=CC2(CC1)c1ccccc1C=Cc1ccc(Cl)cc12 (stereo not drawn) [SIR 114]" result="130 mg/kg"
compound="CN(C)C1C=CC2(CC1)c1ccccc1CCc1ccc(Cl)cc12 (racemic) [SIR 109]" result="185 mg/kg"
compound="CN(C)CCCN1c2ccccc2Sc2ccc(Cl)cc21 [Chlorpromazine, reference compound]" result="92 mg/kg"

###

# EXPERIMENT DESCRIPTION: Catalepsy
# Assay type: in vivo
# SETUP CONDITIONS: rat, in vivo, ip
QUANTITY NAME: ED50 (mg/kg)

compound="CN(C)CCCN1c2ccccc2Sc2ccc(Cl)cc21 [Chlorpromazine, reference compound]" unit_annotation=mg/kg result=7

###

# EXPERIMENT DESCRIPTION: in vivo
# SETUP CONDITIONS: mouse, iv
QUANTITY NAME: LD50 at 24 h (mg/kg)

compound="CN(C)C1CCC2(CC1)c1ccccc1C=Cc1ccc(Cl)cc12 (centres unmarked)" result=18
compound=NC1CCC2(CC1)c1ccccc1C=Cc1ccccc12 result=32
compound="CN(C)C1C=CC2(CC1)c1ccccc1C=Cc1ccc(Cl)cc12 (centres unmarked)" result=22
compound=CN(C)C1CCC2(CC1)c1ccccc1C=Cc1ccccc12 result=32
compound="CN(C)C1C=CC2(CC1)c1ccccc1C=Cc1ccccc12 (centres unmarked)" result=30
compound="CNC1C=CC2(CC1)c1ccccc1C=Cc1ccccc12 (centres unmarked)" result=25
compound="CN(C)CCCN1c2ccccc2Sc2ccc(Cl)cc21 [Chlorpromazine, reference compound]" result=26
compound=CNC1CCC2(CC1)c1ccccc1C=Cc1ccccc12 result=60
compound="NC1C=CC2(CC1)c1ccccc1C=Cc1ccccc12 (centres unmarked)" result=25
compound="CN(C)C1CCC2(CC1)c1ccccc1CCc1ccc(Cl)cc12 (centres unmarked)" result=27
compound="CN(C)C1C=CC2(CC1)c1ccccc1CCc1ccc(Cl)cc12 (racemic)" result=40

###

Known Peripheral anti-cholinergic action PD200 of a selection of molecules
# Tested on: pupil width (mydriasis)
# EXPERIMENT DESCRIPTION: Peripheral anticholinergic (parasympatholytic) effect, mydriasis in mice
# SETUP CONDITIONS: i.v., dose increasing the pupil by 200%
QUANTITY NAME: Peripheral anti-cholinergic action PD200 (mg/kg)

molecule=CN(C)C1CCC2(CC1)c1ccccc1C=Cc1ccccc12 quantity_name="Peripheral anti-cholinergic action PD200" unit_annotation=mg/kg result=1
molecule="CN(C)CCCN1c2ccccc2CCc2ccccc21 [Imipramine, reference compound]" quantity_name="Peripheral anti-cholinergic action PD200" unit_annotation=mg/kg result=13
molecule="CNC1C=CC2(CC1)c1ccccc1C=Cc1ccccc12 (centres unmarked)" quantity_name="Peripheral anti-cholinergic action PD200" unit_annotation=mg/kg result=2.5
molecule="CN(C)C1C=CC2(CC1)c1ccccc1C=Cc1ccccc12 (centres unmarked)" quantity_name="Peripheral anti-cholinergic action PD200" unit_annotation=mg/kg result=1
molecule=CNC1CCC2(CC1)c1ccccc1C=Cc1ccccc12 quantity_name="Peripheral anti-cholinergic action PD200" unit_annotation=mg/kg result=3.5

###

# EXPERIMENT DESCRIPTION: in vivo
# SETUP CONDITIONS: mouse, po
QUANTITY NAME: LD50 at 24 h (mg/kg)

compound="CN(C)CCCN1c2ccccc2Sc2ccc(Cl)cc21 [Chlorpromazine, reference compound]" unit_annotation=mg/kg result=190
compound="CN(C)C1C=CC2(CC1)c1ccccc1CCc1ccc(Cl)cc12 (racemic) [SIR 109]" unit_annotation=mg/kg result=250

###

# EXPERIMENT DESCRIPTION: Solubility in water
# Type: physicochemical
# SETUP CONDITIONS: hydrochloride
QUANTITY NAME: solubility

compound="CNC1C=CC2(CC1)c1ccccc1C=Cc1ccccc12 (stereo not shown) [Example 12]" quantity_name=solubility result="~10000 µg/mL"

###

# Tested on: uptake of noradrenaline (cortex slices)
# EXPERIMENT DESCRIPTION: Inhibition of the uptake of tritiated noradrenaline in vivo
# SETUP CONDITIONS: ip, read-out: Inhibition (50 %) of uptake in vivo, NA
QUANTITY NAME: log10(ED50) (log10 of the value in mg/kg)

compound="CN(C)CCCN1c2ccccc2CCc2ccccc21 [Imipramine, reference compound]" result=0.78
compound="CN(C)C1C=CC2(CC1)c1ccccc1CCc1ccc(Cl)cc12 (racemic)" result=1.60
compound=CN(C)C1CCC2(CC1)c1ccccc1C=Cc1ccccc12 result=0.18
compound="CNC1C=CC2(CC1)c1ccccc1C=Cc1ccccc12 (centres unmarked)" result=0.11
compound="NC1C=CC2(CC1)c1ccccc1C=Cc1ccccc12 (centres unmarked)" result=1.15
compound="CN(C)C1C=CC2(CC1)c1ccccc1C=Cc1ccccc12 (centres unmarked)" result=0.23

###

# System: uptake of noradrenaline (cortex slices)
# EXPERIMENT DESCRIPTION: Inhibition of the uptake of tritiated noradrenaline in vivo
# SETUP CONDITIONS: ip, read-out: Inhibition (50 %) of uptake in vivo, NA
Known ED50 of a selection of compounds
QUANTITY NAME: ED50

compound="CNC1CCC2(CC1)c1ccccc1C=Cc1ccccc12 [CPG 148]" result="> 40 mg/kg"
compound="NC1CCC2(CC1)c1ccccc1C=Cc1ccccc12 [CPG 191]" result="> 40 mg/kg"
compound="CN(C)C1CCC2(CC1)c1ccccc1C=Cc1ccc(Cl)cc12 (centres unmarked) [SIR 118]" result="> 40 mg/kg"
compound="CN(C)C1CCC2(CC1)c1ccccc1CCc1ccc(Cl)cc12 (centres unmarked) [SIR 117]" result="> 40 mg/kg"
compound="CN(C)C1C=CC2(CC1)c1ccccc1C=Cc1ccc(Cl)cc12 (centres unmarked) [SIR 114]" result="> 40 mg/kg"
